Catalogue of melting point values

Before answering, review these 6 worked examples.
compound: CCCCc1nc2c(N)nc3cc(OCc4ccccc4)ccc3c2n1CCOc1ccccc1
endpoint: melting point
recorded result: 188 to 189 °C
//
compound: CC(C(=O)N(C)C)n1cc(Cl)c(-c2ccc(Cl)cc2)n1 (stereo not given)
endpoint: melting point
recorded result: 92 to 93.5 °C
//
compound: CC1(C(=O)n2ccnc2)CC1
endpoint: melting point
recorded result: 34 to 35 °C
//
compound: O=C(CNc1ccc(O)cc1)N1CCC(Cc2ccc(F)cc2)CC1
endpoint: melting point
recorded result: 155 to 157 °C
//
compound: Cc1ccc2c(c1)S(=O)(=O)CC(COC(=O)Nc1ccccc1)(COC(=O)Nc1ccccc1)C2=O
endpoint: melting point
recorded result: 85 to 95 °C
//
compound: NC(=O)c1ccc(C(=O)Nc2ccc(-n3nc(C(F)(F)F)cc3C(F)(F)F)cc2)cc1
endpoint: melting point
recorded result: 290 to 291 °C

Let us move to another entry and its melting point.
What value of melting point has been reported for the following compound? `O=C(C=Cc1cccc(F)c1)c1cnc2sc3c(n12)CCCCC3`
176 to 177 °C

====

Catalogue of melting point values

What value of melting point has been reported for the following compound? `O=C1C2=C(NC3(OCCO3)C(c3ccccc3)=N2)c2ccccc21`
296 °C

What value of melting point has been reported for the following compound? `O=C(CI)Nc1ccc(C(=O)O)cc1`
194 to 196 °C

What value of melting point has been reported for the following compound? `COC(=O)c1ccc(C=C2Cc3ccccc3C2=O)cc1`
194 to 198 °C

What value of melting point has been reported for the following compound? O=C(Nc1ccc(N2CC3CCC3C2)nc1)c1cc2cc(C(F)(F)F)cnc2n1Cc1cccc(F)c1 (stereo unspecified)
172 to 174 °C

What value of melting point has been reported for the following compound? `COc1ccc(C(=O)C(C)(C)Br)c(Cl)c1Cl`
72 to 73 °C

What value of melting point has been reported for the following compound? CCC(=O)C1=C(O)CC(c2ccc3c(c2)OCCO3)CC1=O (stereo unspecified)
155 °C

====

endpoint: melting point

Before answering, review these 10 worked examples.
compound: CNCCC1=C(C#N)C(c2cccc3nonc23)c2c[nH]nc2N1 (stereo unspecified)
melting point: 174 °C
//
compound: O=[N+]([O-])C=C1NCCN1Cc1ccc(Cl)nc1
melting point: 160 to 161 °C
//
compound: C#Cc1cccc(OCC2=CC=C(CO)SS2)c1
melting point: 70.5 to 71.5 °C
//
compound: COc1cc2ccccc2cc1N(C)C(=O)N1CCN(c2cc(Cl)cc(Cl)c2)CC1
melting point: 165 to 167 °C
//
compound: CC(C)(C)c1ccc(C#N)c(NC(=O)Nc2cccnc2)c1
melting point: 164 to 166 °C
//
compound: CC1C(=O)N(c2ccc(OCc3ccccc3)cc2)C(=S)N1c1ccccc1 (stereo unspecified)
melting point: 155 °C
//
compound: COc1cccc(CO)c1CO
melting point: 95 °C
//
compound: O=C1NC(C(=O)NCCO[N+](=O)[O-])C(c2ccc(Cl)cc2)S1 (stereo unspecified)
melting point: 125 to 127 °C
//
compound: COc1cccc2c1nc(C(F)F)n2-c1nc(Nc2ccc(N)nc2)nc(N2CCOCC2)n1
melting point: 267 to 270 °C
//
compound: CSCc1cc([N+](=O)[O-])ccc1N
melting point: 72 to 77 °C

Let us move to another entry and its melting point.
What value of melting point has been reported for the following compound? O=C(Nc1ccccc1OCC1CO1)c1cccc2[nH]ccc12 (stereo unspecified)
122 °C
